Catalogue of compounds with associated pIC50
target: Nanoluciferase-BRD9 fusion protein (3×FLAG-NLuc-BRD9) in SYO-1 cells (Homo sapiens (Human)); assay: SYO1 BRD9 NanoLuc degradation assay; assay type: cell-based; details: SYO-1 cells, 6 hours, Table 6C
Sequence (Q9H8M2 whole entry, the tested form may be a part): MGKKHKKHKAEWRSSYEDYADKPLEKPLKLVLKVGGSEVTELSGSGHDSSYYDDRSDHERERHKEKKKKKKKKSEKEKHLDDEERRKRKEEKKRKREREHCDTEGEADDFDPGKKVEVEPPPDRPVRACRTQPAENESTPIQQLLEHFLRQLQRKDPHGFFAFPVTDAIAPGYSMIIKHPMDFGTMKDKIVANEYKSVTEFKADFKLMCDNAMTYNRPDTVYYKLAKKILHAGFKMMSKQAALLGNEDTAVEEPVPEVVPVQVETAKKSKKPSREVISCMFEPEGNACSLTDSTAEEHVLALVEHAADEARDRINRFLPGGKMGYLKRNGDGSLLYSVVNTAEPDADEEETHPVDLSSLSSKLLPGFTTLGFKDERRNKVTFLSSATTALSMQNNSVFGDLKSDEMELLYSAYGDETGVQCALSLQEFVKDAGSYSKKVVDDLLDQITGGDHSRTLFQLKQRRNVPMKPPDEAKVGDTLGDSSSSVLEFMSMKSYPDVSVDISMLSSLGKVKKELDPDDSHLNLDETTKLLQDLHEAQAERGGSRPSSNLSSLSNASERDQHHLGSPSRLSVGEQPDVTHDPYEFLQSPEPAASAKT
pIC50: −log10 of the molar value.

{"COMPOUND": "COc1cc(-c2cn(C)c(=O)c3c2COC3)cc(OC)c1CN1CC(C#Cc2ccc3c(c2)CN(C2CCC(=O)NC2=O)C3=O)C1 (stereo not drawn)", "pIC50": "> 8.00"}

Ask: Query: pIC50; subject: CNC(=O)N1CCc2c(-c3cc(OC)c(CN4CCN(CCC5CCN(c6ccc7c(c6)C(=O)N(C6CCC(=O)N(C)C6=O)C7)CC5)CC4)c(OC)c3)cn(C)c(=O)c2C1 (stereo not drawn)
Reply: ≤ 6.00

Ask: Query: pIC50; subject: COc1cc(-c2cn(C)c(=O)c3c2CCC(=O)N3)cc(OC)c1CN1CCC(CN2CCC3(CC2)CC(Oc2ccc4c(c2)CN(C2CCC(=O)NC2=O)C4=O)C3)CC1 (stereo not drawn)
Reply: > 8.00
